- Test system: HIV-infected MT-4 cells
- assay-comment: Inhibition of the HIV-induced cytopathic effect in MT-4 cells (MTT)
- Type: cell-based
- assay-context: read-out: IC50 (50% inhibitory concentration; dose achieving 50% protection); HIV-infected MT-4 cells, MTT, OD 540 nm
Friendly reminder: IC50 below 4 nM is TRUE, at or above is FALSE.

# chemical-structure, cat
data = [
    ("COCc1cc(Oc2c(Br)cc(C#N)cc2Br)nc(Nc2ccc(C#N)cc2)n1", "FALSE"),
    ("CSc1nc(Nc2ccc(C#N)cc2)nc(Nc2c(C)cc(C)cc2C)n1", "TRUE"),
    ("N#Cc1ccc(Nc2nc(Cl)nc(Nc3c(Cl)cc(Cl)cc3Cl)n2)cc1", "FALSE"),
    ("CCOc1nc(Cc2c(Cl)cccc2Cl)nc(Nc2ccc(C#N)cc2)n1", "FALSE"),
    ("Cc1cc(C)c(Oc2nc(Nc3ccc(C#N)cc3)nc(C(N)=O)n2)c(C)c1", "TRUE"),
    ("N#Cc1ccc(Nc2nc(Cc3c(Cl)cccc3Cl)nc(N3C(=O)CCC3=O)n2)cc1", "FALSE"),
    ("Cc1cc(C)c(Oc2cc(C(F)(F)F)nc(Nc3ccc(C#N)cc3)n2)c(C)c1", "FALSE"),
]

---

assay-readout: melting point

# molecule, observed
data = [
    ("N#Cc1ccc(Nc2nc(Cc3c(Cl)cccc3Cl)nc(N3C(=O)COCC3=O)n2)cc1 [Compound 4]", "268 to 269 °C"),
    ("COc1nc(Cc2c(Cl)cccc2Cl)nc(Nc2ccc(C#N)cc2)n1 [Compound 9]", "198 to 199 °C"),
    ("CNCc1nc(Nc2ccc(C#N)cc2)nc(Oc2c(C)cc(C#N)cc2C)c1Br [Compound 74]", "223 to 224 °C"),
    ("COC(=O)c1cc(Oc2c(C)cc(C#N)cc2C)nc(Nc2ccc(C#N)cc2)n1 [Compound 71]", "258 to 259 °C (dec.)"),
]

---

# key: entry, value: melting point

# compound, melting point
rows = [
    ("N#Cc1ccc(Nc2nc(Cc3c(Cl)cccc3Cl)nc(-n3[nH]nnc3=N)n2)cc1 [Compound 46]", "302 to 304 °C"),
    ("N#Cc1ccc(Nc2nc(Cl)nc(Oc3c(Cl)cc(Cl)cc3Cl)n2)cc1 [Compound 72]", "238 to 239 °C"),
    ("Cc1cc(C#N)cc(C)c1Oc1nc(Nc2ccc(C#N)cc2)nc(CCl)c1Br [Compound 73]", "238 to 240 °C"),
    ("Cc1cc(C#N)cc(C)c1Nc1cc(C(F)(F)F)nc(Nc2ccc(C#N)cc2)n1 [Compound 33]", "249 to 251 °C"),
]

---

assay-readout: melting point

# chemical-structure, observed
records = [
    ("COCc1cc(Nc2cc(C)c(F)cc2Cl)nc(Nc2ccc(C#N)cc2)n1", "213 to 214 °C"),
    ("N#Cc1ccc(Nc2nc(O)nc(Cc3c(Cl)cccc3Cl)n2)cc1", "> 300 °C"),
    ("N#Cc1ccc(Nc2nc(C#N)nc(Cc3c(Cl)cccc3Cl)n2)cc1", "221 to 230 °C"),
    ("NC(=O)c1ccc(Nc2nc(Cc3c(Cl)cccc3Cl)nc(C(N)=O)n2)cc1", "287 to 295 °C"),
    ("N#Cc1ccc(Nc2nc(Cc3c(Cl)cccc3Cl)nc(C(N)=O)n2)cc1", "262 to 263 °C"),
    ("COCc1cc(Oc2c(C)cc(C#N)cc2C)nc(Nc2ccc(C#N)cc2)n1", "203 to 204 °C"),
]
